Source: patent US7365211B2

Collected melting point values appear next to each entry.

>>> meas_value("Cc1cc(C)c(-c2cccc3c(N(C)C)n(C)nc23)c(C)c1.Cl")
"169.9 to 171.9 °C"
>>> meas_value("Cn1nc2c(-c3ccc(Cl)cc3Cl)cccc2c1S(=O)(=O)CCO [D5]")
"157.8 to 161.7 °C"
>>> meas_value("Cn1nc2c(-c3ccc(Cl)cc3Cl)cccc2c1NS(C)(=O)=O [D15]")
"171.3 to 173.2 °C"

(Q) Complete the entry with melting point for Cn1nc2c(-c3ccc(Cl)cc3Cl)cccc2c1CO [E4]
(A) 197.3 to 201.2 °C

(Q) Tell me measured melting point for CO/N=C\c1c2cccc(-c3ccc(Cl)cc3Cl)c2nn1C [A22] please.
(A) 159.2 to 160.5 °C

(Q) Give recorded melting point. CN(C)C(=O)Nc1c2cccc(-c3ccc(Cl)cc3Cl)c2nn1C [C15]
(A) 123.3 to 126.3 °C

(Q) Complete the entry with melting point for Cn1cc2cncc(-c3ccc(Cl)cc3Cl)c2n1 [A34]
(A) 153.9 to 155.3 °C

(Q) Look up and state reported melting point for Cn1nc2c(-c3ccc(Cl)cc3Cl)cccc2c1Br [A27]
(A) 137 to 139 °C

(Q) # return recorded melting point for entry Cc1cc(C)c(-c2cccc3c(C(C)O)n(C)nc23)c(C)c1 (centres unmarked) [E1]
(A) 246 to 247 °C

(Q) Identify the reported melting point for the following entry. Cc1cc(C#N)ccc1-c1cccc2cn(C)nc12 [A6]
(A) 101 to 105 °C

(Q) Please give measured melting point of the following entry: Cl.Cn1nc2c(-c3ccc(Cl)cc3Cl)cccc2c1CNN
(A) 172.5 to 176 °C
